Measured pIC50 accompanies every entry in the list below.
Assay: Growth inhibition of human RT4 cells incubated for 96 hrs by crystal violet assay
Assay type: functional, cell-based
Details: RT-4, 96 h
pIC50: −log10 of the molar value.
measurement.kind: pIC50

> print(dat)
                                    compound  measurement.kind  observed.result
 1  O[C@H]1CC[C@H]2CN(CC3CCCCC3)[C@@H]1CN2Cc1ccccc1             pIC50           < 4.70
 2  CC(C)=CCN1CC[C@]2(C)c3cc(O)ccc3C[C@H]1[C@H]2C [(+)-PENTAZOCINE]             pIC50           < 4.70
 3  O[C@H]1C[C@H]2CN(CC3CCCCC3)[C@@H]1CN2Cc1ccccc1             pIC50           < 4.70
 4  O[C@@H]1CC[C@H]2CN(CC3CCCCC3)[C@@H]1CN2Cc1ccccc1             pIC50           < 4.70
 5  O[C@H]1C[C@@H]2CN(CC3CCCCC3)[C@H]1CN2Cc1ccccc1             pIC50           < 4.70
 6   CN1C[C@@H]2C[C@@H](O)[C@H]1CN2Cc1ccccc1             pIC50           < 4.70
 7  O=C(CCCN1CCC(O)(c2ccc(Cl)cc2)CC1)c1ccc(F)cc1 [HALOPERIDOL]             pIC50             4.80
 8  O[C@@H]1C[C@H]2CN(CC3CCCCC3)[C@@H]1CN2Cc1ccccc1             pIC50           < 4.70
 9  O[C@@H]1C[C@@H]2CN(CC3CCCCC3)[C@H]1CN2Cc1ccccc1             pIC50           < 4.70
10  O[C@@H]1C[C@H]2CN(CC3CCCCC3)[C@@H]1CN2Cc1cccc2ccccc12             pIC50             4.95
11  O[C@H]1C[C@H]2CN(CC3CCCCC3)[C@@H]1CN2Cc1cccc2ccccc12             pIC50             4.89
